test system: Plasmodium berghei; assay: Luciferase/luciferin-expressing antifolate-resistant parasites were used to infect a culture of HepG2 cells that were pre-incubated with compounds. Infected hepatocytes emit light due to the luciferase reaction. Assay results are presented as the percent inhibition of light emission compared to control. […]; assay type: functional; details: sporozoite, FFLUC_HILL_SLOPE 0.915, FFLUC_R_SQUARED 0.422, read-out: LUCIFERASE INFECTION ASSAY - IC50
Readout Name: IC50

Noted for O=[N+]([O-])c1cnc(Sc2nnc(SCc3cccc(C(F)(F)F)c3)s2)s1 : its IC50 reads > 7.56 µM

###

system: Plasmodium berghei; assay: Luciferase/luciferin-expressing antifolate-resistant parasites were used to infect a culture of HepG2 cells that were pre-incubated with compounds. Infected hepatocytes emit light due to the luciferase reaction. Assay results are presented as the percent inhibition of light emission compared to control. […]; assay type: functional; conditions: sporozoite, HEPG2TOX_HILL_SLOPE 2.22, HEPG2TOX_R_SQUARED 0.937, PBLUC_HILL_SLOPE 2.28, PBLUC_R_SQUARED 0.461, read-out: LUCIFERASE INFECTION ASSAY - IC50
Readout Name: IC50 (µM)
Give the value in µM but do not write µM after it.

Noted for Clc1cccc(CNc2ncnc3sccc23)c1 : its IC50 reads 3.76

###

test system: Plasmodium berghei; test: Luciferase/luciferin-expressing antifolate-resistant parasites were used to infect a culture of HepG2 cells that were pre-incubated with compounds. Infected hepatocytes emit light due to the luciferase reaction. Assay results are presented as the percent inhibition of light emission compared to control. […]; assay type: functional; conditions: sporozoite, PBLUC_HILL_SLOPE 3.67, PBLUC_R_SQUARED 0.341, read-out: LUCIFERASE INFECTION ASSAY - IC50
Readout Name: pIC50
Field pIC50 (float): negative decimal logarithm of the concentration in molar.

Plasmodium berghei assay, compound CCCN(CC(=O)Nc1cc(-c2ccccc2)sc1C(=O)OCC)Cc1nnc(-c2ccco2)o1 , recorded pIC50 = 5.14

###

system: Plasmodium berghei; experiment: Luciferase/luciferin-expressing antifolate-resistant parasites were used to infect a culture of HepG2 cells that were pre-incubated with compounds. Infected hepatocytes emit light due to the luciferase reaction. Assay results are presented as the percent inhibition of light emission compared to control. […]; format: functional; settings: sporozoite, HEPG2TOX_HILL_SLOPE 2.72, HEPG2TOX_R_SQUARED 0.979, PBLUC_HILL_SLOPE 2.85, PBLUC_R_SQUARED 0.935, read-out: LUCIFERASE INFECTION ASSAY - IC50
Readout Name: pIC50
Field pIC50 (float): negative decimal logarithm of the concentration in molar.

Noted for CC(=O)O[C@H]1CC[C@]2(C)C3CC[C@]4(C)C(C5=CC(=O)OC5)CC[C@]4(O)C3CC[C@@H]2C1 (stereo partly specified) : its pIC50 reads 6.28

###

Give measured pIC50 for each item. Keep answers brief.
tested on: Plasmodium berghei; experiment: Luciferase/luciferin-expressing antifolate-resistant parasites were used to infect a culture of HepG2 cells that were pre-incubated with compounds. Infected hepatocytes emit light due to the luciferase reaction. Assay results are presented as the percent inhibition of light emission compared to control. […]; type: functional; conditions: sporozoite, read-out: LUCIFERASE INFECTION ASSAY - IC50
pIC50: −log10 of the molar value.

Noted for Cc1ccc2c(CC(=O)Nc3sccc3C(N)=O)coc2c1 : its pIC50 reads < 5.00

Noted for FC(F)(F)c1nc2ccccc2n2c(-c3ccc(Br)cc3)nnc12 : its pIC50 reads < 5.08

Noted for COc1ccc(Br)cc1/C=C/c1ccc2c([N+](=O)[O-])cccc2n1 : its pIC50 reads < 5.00

Noted for CCCCn1nnnc1COC(=O)c1ccccc1Sc1ccccc1C#N : its pIC50 reads < 5.00

Noted for CC(C)N(C(=O)COn1nnc2ccc(S(=O)(=O)N(C)C)cc21)C(C)C : its pIC50 reads < 5.00

Noted for CN(Cc1ccsc1)c1nc(C(F)(F)F)nc2ccccc12 : its pIC50 reads < 5.00

Noted for O=C(c1cccc(Cl)c1)c1cnc(Nc2cccc(C(F)(F)F)c2)[nH]1 : its pIC50 reads 5.26

Noted for CC(C)(c1ccccc1)c1ccc(OCC(O)CN2CCC(C(N)=O)CC2)cc1 (stereo unspecified) : its pIC50 reads < 5.00

Noted for CCN(CC)Cc1ccccc1CNC(=O)c1cccc2ccccc12 : its pIC50 reads < 5.00

Noted for O=C(COc1ccccc1SCc1ccc(Cl)cc1)NNC(=O)c1cccc(C(F)(F)F)c1 : its pIC50 reads < 5.18

Noted for O=C1CC(c2cccc(Cl)c2Cl)c2c([nH]c(-c3ccccc3)nc2=O)N1 (stereo unspecified) : its pIC50 reads < 5.07

Noted for COc1cc(C(=O)Nc2ccc(-c3cn4ccsc4n3)cc2)ccc1OCC(=O)N1CCOCC1 : its pIC50 reads < 5.00

Noted for CCC(NCC(O)COc1ccccc1C(C)C)C12CC3CC(CC(C3)C1)C2 (stereo unspecified) : its pIC50 reads < 5.00

Noted for CN(C)CCNC(=O)c1ccc(-c2cn3c(-c4cccc(Cl)c4)cnc3cn2)cc1 : its pIC50 reads < 5.10

Noted for CCc1sc(C(=O)Nc2nc(-c3ccc(CNC(C)=O)cc3)cs2)cc1C : its pIC50 reads < 5.00

Noted for COc1ccc(NS(=O)(=O)c2cc(NC(=O)c3cc(S(=O)(=O)Nc4ccc(Cl)cc4)ccc3Cl)ccc2N2CCOCC2)cc1 : its pIC50 reads < 5.00

Noted for CC(=O)N1C=Cc2ccccc2C1CC(=O)Nc1ccc(Cl)c(S(=O)(=O)N2CCCC2)c1 (stereo unspecified) : its pIC50 reads < 5.00

Noted for Cc1[nH]c2ccccc2c1Sc1ccc(Cl)cc1 : its pIC50 reads < 4.92

Noted for NC(c1csc(NC(=O)Nc2cccc3ccccc23)n1)C1CCCCC1 (stereo unspecified) : its pIC50 reads < 5.06

Noted for CCOC(=O)c1c(C)[nH]c(/C=C2/C(=O)N(c3ccccc3)N=C2C)c1Cc1cccc(Cl)c1 : its pIC50 reads < 5.00

Noted for CCC(CO)NC(=S)Nc1cc(C(F)(F)F)cc(C(F)(F)F)c1 (stereo unspecified) : its pIC50 reads < 5.04

###

system: Plasmodium berghei; experiment: Luciferase/luciferin-expressing antifolate-resistant parasites were used to infect a culture of HepG2 cells that were pre-incubated with compounds. Infected hepatocytes emit light due to the luciferase reaction. Assay results are presented as the percent inhibition of light emission compared to control. […]; format: functional; details: sporozoite, PBLUC_HILL_SLOPE 31.5, PBLUC_R_SQUARED 0.344, read-out: LUCIFERASE INFECTION ASSAY - IC50
Readout Name: pIC50
Field pIC50 (float): negative decimal logarithm of the concentration in molar.

Noted for Cc1ccc(-c2nc(CN3C(=O)NC4(CCCCCC4)C3=O)cs2)cc1 : its pIC50 reads 5.00

###

system: Plasmodium berghei; assay: Luciferase/luciferin-expressing antifolate-resistant parasites were used to infect a culture of HepG2 cells that were pre-incubated with compounds. Infected hepatocytes emit light due to the luciferase reaction. Assay results are presented as the percent inhibition of light emission compared to control. […]; format: functional; settings: sporozoite, HEPG2TOX_HILL_SLOPE 7.78, HEPG2TOX_R_SQUARED 0.356, PBLUC_HILL_SLOPE 1.9, PBLUC_R_SQUARED 0.373, read-out: LUCIFERASE INFECTION ASSAY - IC50
Readout Name: pIC50
Field pIC50 (float): negative decimal logarithm of the concentration in molar.

Noted for CCn1c(-c2cc(C(=O)c3ccccc3O)c[nH]2)nc2ccccc21 : its pIC50 reads 5.22

###

test system: Plasmodium berghei; test: Luciferase/luciferin-expressing antifolate-resistant parasites were used to infect a culture of HepG2 cells that were pre-incubated with compounds. Infected hepatocytes emit light due to the luciferase reaction. Assay results are presented as the percent inhibition of light emission compared to control. […]; assay type: functional; conditions: sporozoite, HEPG2TOX_HILL_SLOPE 1.67, HEPG2TOX_R_SQUARED 0.878, PBLUC_HILL_SLOPE 0.95, PBLUC_R_SQUARED 0.607, read-out: LUCIFERASE INFECTION ASSAY - IC50
Readout Name: pIC50
Field pIC50 (float): negative decimal logarithm of the concentration in molar.

Plasmodium berghei assay, compound O=C1CSC(=N/N=C2\SC(CC(=O)Nc3ccc(Br)cc3)C(=O)N2Cc2ccco2)N1 (stereo unspecified) , recorded pIC50 = 5.30

###

tested on: Plasmodium berghei; experiment: Luciferase/luciferin-expressing antifolate-resistant parasites were used to infect a culture of HepG2 cells that were pre-incubated with compounds. Infected hepatocytes emit light due to the luciferase reaction. Assay results are presented as the percent inhibition of light emission compared to control. […]; assay type: functional; conditions: sporozoite, HEPG2TOX_HILL_SLOPE 0.814, HEPG2TOX_R_SQUARED 0.982, PBLUC_HILL_SLOPE 1.1, PBLUC_R_SQUARED 0.75, read-out: LUCIFERASE INFECTION ASSAY - IC50
Readout Name: IC50 (nM)
Give the value in nM but do not write nM after it.

Noted for CC(=O)Nc1cccc(-c2cnc3ccc(-c4cccs4)nn23)c1 : its IC50 reads 461
